# measurementTarget: human k-opioid receptor (kOR) (Homo sapiens)
# Construct: expressed in transfected cells; host or cells: RBL cells (membrane homogenates)
# experimentDescription: Human k-opioid (KOP) receptor (agonist radioligand [3H]U-69593) binding assay, transfected RBL cell membranes
# conditionInfo: second value of IC50/Ki cell
Reported Ki by item:

inputSmiles: O=C(c1c(-c2ccccc2F)nn2ccccc12)N1CCC[C@H]1Cn1cc(-c2ccccc2)cn1
Ki / nM: 100

inputSmiles: C[C@@H]1CCCN(C(=O)c2c(-c3ccc(F)cc3)nn3ccccc23)[C@@H]1CNc1ccc(C(F)(F)F)cn1
Ki / nM: 400

inputSmiles: C[C@@H]1CCCN(C(=O)c2c(-c3ccccc3)nc3ccccn23)[C@@H]1CNc1ccc(C(F)(F)F)cn1
Ki / nM: 1080

inputSmiles: O=C(c1c(-c2ccccc2)nn2ccccc12)N1CCCC[C@H]1COc1ccc(C(F)(F)F)cn1
Ki / nM: 630

inputSmiles: O=C(c1c(-c2ccccc2)nc2ccc(F)cn12)N1[C@H](Cn2ccc(-c3ccc(F)cc3)n2)C[C@@H]2C[C@@H]21
Ki / nM: 44

inputSmiles: O=C(c1c(-c2ccccc2)nc2ccc(F)cn12)N1CCC[C@H]1Cn1ccc(-c2ccc(F)cn2)n1
Ki / nM: 94

inputSmiles: O=C(c1c(-c2ccccc2)nn2ccccc12)N1CCC[C@H]1CNc1ccc(C(F)(F)F)cn1
Ki / nM: 3340

inputSmiles: O=C(c1c(-c2ccccc2)nn2ccccc12)N1CCC[C@H]1Cn1ccc(-c2ccccc2)n1
Ki / nM: 549

inputSmiles: O=C(c1nn2ccccc2c1-c1ccccc1)N1CCC[C@H]1Cn1cc(-c2ccc(F)cn2)cn1
Ki / nM: 390

----------
# measurementTarget: human k-opioid receptor (kOR) (Homo sapiens, UniProt P41145)
# Construct: expressed in transfected cells; host or cells: RBL cells (membrane homogenates)
# Sequence (P41145 whole entry): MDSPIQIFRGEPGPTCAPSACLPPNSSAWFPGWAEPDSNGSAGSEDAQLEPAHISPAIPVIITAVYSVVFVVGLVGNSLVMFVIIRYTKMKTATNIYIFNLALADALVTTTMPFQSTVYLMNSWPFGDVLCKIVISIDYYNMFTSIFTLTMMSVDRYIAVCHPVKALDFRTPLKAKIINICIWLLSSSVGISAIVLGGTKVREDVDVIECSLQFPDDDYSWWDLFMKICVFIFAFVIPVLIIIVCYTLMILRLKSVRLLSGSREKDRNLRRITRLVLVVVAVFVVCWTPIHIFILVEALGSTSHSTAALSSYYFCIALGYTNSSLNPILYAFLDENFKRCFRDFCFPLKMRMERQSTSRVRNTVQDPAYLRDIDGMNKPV
# experimentDescription: Human k-opioid (KOP) receptor (agonist radioligand [3H]U-69593) binding assay, transfected RBL cell membranes
# conditionInfo: read-out: KOR % Inh. @ 1 uM
Each entry belongs to exactly one class, chosen by where its inhibition at 1 µM falls: lowest = under 3%, middle = from 3% up to 50%, highest = 50% and over

molecule: O=C(c1c(-c2ccccc2)nc2ccc(F)cn12)N1CCC[C@H]1Cn1ccc(-c2ccc(F)cn2)n1
measurementTarget: human k-opioid receptor (kOR) (Homo sapiens, UniProt P41145)
category: highest
//
molecule: O=C(c1c(-c2ccccc2)nn2ccccc12)N1CCC[C@H]1Cc1nc(-c2ccc(F)cn2)no1
measurementTarget: human k-opioid receptor (kOR) (Homo sapiens, UniProt P41145)
category: middle
//
molecule: O=C(c1nn2c(c1-c1ccccn1)OCCC2)N1CCC[C@H]1Cn1cc(-c2ccccn2)cn1
measurementTarget: human k-opioid receptor (kOR) (Homo sapiens, UniProt P41145)
category: lowest
//
molecule: O=C(c1c(-c2ccccc2)nc2ccc(F)cn12)N1CCC[C@H]1Cn1ccc(-c2ccc(F)cc2)n1
measurementTarget: human k-opioid receptor (kOR) (Homo sapiens, UniProt P41145)
category: highest
//
molecule: O=C(c1c(-c2ccccn2)nn2ccccc12)N1CCC[C@H]1Cn1ccc(-c2ccccn2)n1
measurementTarget: human k-opioid receptor (kOR) (Homo sapiens, UniProt P41145)
category: lowest
//
molecule: O=C(c1c(-c2ccccc2)nc2cc(C(F)(F)F)ccn12)N1CCC[C@H]1Cn1cc(-c2ccccc2)cn1
measurementTarget: human k-opioid receptor (kOR) (Homo sapiens, UniProt P41145)
category: highest
//
molecule: O=C(c1nn2cccnc2c1-c1ccccn1)N1C(Cn2ccc(-c3ccc(F)cn3)n2)C[C@@H]2C[C@@H]21 (stereo partly drawn)
measurementTarget: human k-opioid receptor (kOR) (Homo sapiens, UniProt P41145)
category: lowest
//
molecule: O=C(c1c(-c2ccccc2F)nn2ccccc12)N1CCC[C@H]1Cn1cc(-c2ccccc2)cn1
measurementTarget: human k-opioid receptor (kOR) (Homo sapiens, UniProt P41145)
category: highest
//
molecule: O=C(c1nc2ccccn2c1-c1ccccc1)N1CCC[C@H]1Cc1nc(-c2ccc(F)cn2)no1
measurementTarget: human k-opioid receptor (kOR) (Homo sapiens, UniProt P41145)
category: middle
//
molecule: O=C(c1nn2c(c1-c1ccccc1)COCC2)N1CCC[C@H]1Cn1ccc(-c2ccccc2)n1
measurementTarget: human k-opioid receptor (kOR) (Homo sapiens, UniProt P41145)
category: middle
//
molecule: CCc1cnc(NC[C@@H]2[C@H](C)CCCN2C(=O)c2c(-c3ccccc3)nn3ccccc23)nc1
measurementTarget: human k-opioid receptor (kOR) (Homo sapiens, UniProt P41145)
category: highest
//
molecule: C[C@@H]1CCCN(C(=O)c2c(-c3ccccc3)nc3ncccn23)[C@@H]1CNc1ccc(C(F)(F)F)cn1
measurementTarget: human k-opioid receptor (kOR) (Homo sapiens, UniProt P41145)
category: highest
//
molecule: O=C(c1nc2ccccn2c1-c1ccccc1)N1CCC[C@H]1Cn1cc(-c2ccc(F)cn2)cn1
measurementTarget: human k-opioid receptor (kOR) (Homo sapiens, UniProt P41145)
category: middle
//
molecule: C[C@@H]1CCCN(C(=O)c2c(-c3ccc(F)cc3)nn3ccccc23)[C@@H]1CNc1ccc(C(F)(F)F)cn1
measurementTarget: human k-opioid receptor (kOR) (Homo sapiens, UniProt P41145)
category: highest
//
molecule: O=C(c1nc2ccccn2c1-c1ccccc1)N1CCC[C@H]1Cc1nc(-c2ccccn2)no1
measurementTarget: human k-opioid receptor (kOR) (Homo sapiens, UniProt P41145)
category: middle
//
molecule: O=C(c1nn2c(c1-c1ccccc1)OCCC2)N1CCC[C@H]1Cn1ccc(-c2ccccc2)n1
measurementTarget: human k-opioid receptor (kOR) (Homo sapiens, UniProt P41145)
category: highest
//
molecule: O=C(c1nc2ccccn2c1-c1ccccc1)N1[C@@H]2CC[C@@H](C2)[C@H]1COc1ccc(C(F)(F)F)cn1
measurementTarget: human k-opioid receptor (kOR) (Homo sapiens, UniProt P41145)
category: middle
//
molecule: O=C(c1nn2c(c1-c1ccccc1)COCC2)N1CCC[C@H]1Cn1ccc(-c2ccccn2)n1
measurementTarget: human k-opioid receptor (kOR) (Homo sapiens, UniProt P41145)
category: lowest
//
molecule: O=C(c1c(-c2ccccc2)nc2cc(C(F)(F)F)ccn12)N1CCC[C@H]1Cn1ccc(-c2ccccn2)n1
measurementTarget: human k-opioid receptor (kOR) (Homo sapiens, UniProt P41145)
category: highest
//
molecule: [2H]C1([2H])CC[C@@]([2H])(COc2ccc(C(F)(F)F)cn2)N1C(=O)c1nn2c(c1-c1ccccc1)COCC2
measurementTarget: human k-opioid receptor (kOR) (Homo sapiens, UniProt P41145)
category: lowest
//
molecule: C[C@@]1(Cn2ccc(-c3ccccn3)n2)CCCN1C(=O)c1nc2ccccn2c1-c1ccccc1
measurementTarget: human k-opioid receptor (kOR) (Homo sapiens, UniProt P41145)
category: middle
//
molecule: O=C(c1c(-c2ccccc2)nc2ccc(F)cn12)N1CCC[C@H]1Cn1cc(-c2ccccc2)cn1
measurementTarget: human k-opioid receptor (kOR) (Homo sapiens, UniProt P41145)
category: highest
//
molecule: C[C@@]1(COc2ccc(C(F)(F)F)cn2)CCCN1C(=O)c1nn2cccnc2c1-c1ccccc1
measurementTarget: human k-opioid receptor (kOR) (Homo sapiens, UniProt P41145)
category: lowest
//
molecule: O=C(c1c(-c2ccccn2)nn2ccccc12)N1CCC[C@H]1Cn1ccc(-c2ccccc2)n1
measurementTarget: human k-opioid receptor (kOR) (Homo sapiens, UniProt P41145)
category: middle
//
molecule: O=C(c1nn2ccccc2c1-c1ccccn1)N1CCC[C@H]1Cn1cc(-c2ccc(F)cn2)cn1
measurementTarget: human k-opioid receptor (kOR) (Homo sapiens, UniProt P41145)
category: lowest
//
molecule: O=C(c1c(-c2ccccc2)nc2ccc(F)cn12)N1CCC[C@H]1Cn1ccc(-c2ccccn2)n1
measurementTarget: human k-opioid receptor (kOR) (Homo sapiens, UniProt P41145)
category: middle

----------
Reported pIC50 by item:
# measurementTarget: Orexin type 1 (OX1R) receptor (Homo sapiens, UniProt O43613)
# Sequence (O43613 1-425): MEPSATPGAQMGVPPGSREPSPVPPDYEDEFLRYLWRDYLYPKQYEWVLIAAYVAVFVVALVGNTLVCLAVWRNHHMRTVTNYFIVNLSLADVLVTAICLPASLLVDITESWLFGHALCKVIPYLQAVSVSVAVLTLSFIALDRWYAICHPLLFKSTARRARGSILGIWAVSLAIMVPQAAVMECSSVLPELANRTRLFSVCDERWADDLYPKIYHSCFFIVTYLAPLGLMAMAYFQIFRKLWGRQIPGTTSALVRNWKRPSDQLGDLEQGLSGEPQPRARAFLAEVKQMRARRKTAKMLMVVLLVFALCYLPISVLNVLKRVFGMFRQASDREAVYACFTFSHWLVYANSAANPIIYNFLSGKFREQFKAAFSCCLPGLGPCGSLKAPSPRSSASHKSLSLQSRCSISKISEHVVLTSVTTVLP
# experimentDescription: In vitro orexin antagonism assay: intracellular calcium measurement (FLIPR), orexin-A 3 nM as agonist
# conditionInfo: first value of IC50/Kb cell
pIC50: −log10 of the molar value.

compound: O=C(c1nc2ccccn2c1-c1ccccn1)N1CCC[C@H]1COc1ccc(C(F)(F)F)cn1 [Example 179]
measurementTarget: Orexin type 1 (OX1R) receptor (Homo sapiens, UniProt O43613)
pIC50: 8.10
//
compound: O=C(c1c(-c2ccccc2)nn2ccccc12)N1CCC[C@H]1Cn1ccc(-c2ccc(C(F)(F)F)cc2)n1 [Example 60]
measurementTarget: Orexin type 1 (OX1R) receptor (Homo sapiens, UniProt O43613)
pIC50: 6.97
//
compound: O=C(c1nc2ccccn2c1-c1ccccc1)N1C2CCC1(COc1ccc(C(F)(F)F)cn1)CC2 [Example 160]
measurementTarget: Orexin type 1 (OX1R) receptor (Homo sapiens, UniProt O43613)
pIC50: 7.62
//
compound: O=C(c1nn2ccccc2c1-c1ccccc1)N1CCC[C@H]1COc1ccc(C(F)(F)F)cn1 [Example 28]
measurementTarget: Orexin type 1 (OX1R) receptor (Homo sapiens, UniProt O43613)
pIC50: 8.40
//
compound: O=C(c1nn2ccccc2c1-c1ccccn1)N1CCC[C@H]1Cn1ccc(-c2ccc(F)cn2)n1 [Example 182]
measurementTarget: Orexin type 1 (OX1R) receptor (Homo sapiens, UniProt O43613)
pIC50: 7.72
//
compound: C[C@@]1(COc2ccc(C(F)(F)F)cn2)CCCN1C(=O)c1nn2cccnc2c1-c1ccccc1 [Example 146]
measurementTarget: Orexin type 1 (OX1R) receptor (Homo sapiens, UniProt O43613)
pIC50: 6.46
//
compound: O=C(c1c(-c2ncccn2)nn2ccccc12)N1CCC[C@H]1Cn1ccc(-c2ccccc2)n1 [Example 131]
measurementTarget: Orexin type 1 (OX1R) receptor (Homo sapiens, UniProt O43613)
pIC50: 8.40
//
compound: C[C@@]1(COc2ccc(C(F)(F)F)cn2)CCCN1C(=O)c1c(-c2ccccn2)nn2ccccc12 [Example 147]
measurementTarget: Orexin type 1 (OX1R) receptor (Homo sapiens, UniProt O43613)
pIC50: 7.37
